Listing of entries alongside the reported Binding Capacity.
# testTarget: monoclonal antibody MV-001
# procedureSummary: ELISA, peptide-BSA coated, MV-001
# protocolConditions: scale: code

Reported Binding Capacity, binder SEFKHC [p4801] : ____ 3

# query: Binding Capacity of entry LPFRHGC [p4388] 2

Fill blank: measured Binding Capacity of the binder QDFRHYC [p4380] is ____. 2

Values compiled from patent US8613931B2.
